# systemName: CCR2 (Homo sapiens)
# Construct: Membranes were prepared from THP-1 cells; endogenous in cells; host or cells: THP-1 (human acute monocytic leukaemia cells), membrane preparation
# Sequence (P41597 1-360 isoform P41597-2): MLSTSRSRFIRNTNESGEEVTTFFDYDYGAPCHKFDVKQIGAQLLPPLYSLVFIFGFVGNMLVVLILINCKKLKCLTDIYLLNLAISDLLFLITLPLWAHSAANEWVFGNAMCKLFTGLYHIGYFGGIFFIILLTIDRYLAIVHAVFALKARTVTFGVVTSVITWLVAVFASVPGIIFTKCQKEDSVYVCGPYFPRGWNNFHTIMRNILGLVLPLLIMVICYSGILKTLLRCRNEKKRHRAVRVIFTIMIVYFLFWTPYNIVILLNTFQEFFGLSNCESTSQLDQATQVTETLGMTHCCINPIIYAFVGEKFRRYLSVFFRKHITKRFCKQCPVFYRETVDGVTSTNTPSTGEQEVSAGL
# assayMethodText: CCR2 receptor membrane binding assay ([125I]MCP-1, THP-1 cell membranes, SPA beads)
# particulars: THP-1 membranes, [125I]MCP-1, bound radioactivity after 8 h; read-out: hKi [nM](CCR2)
Each entry below carries its recorded Ki.
Your answer should be a plain number; it is taken to be in nM.

Indicate the recorded Ki value for this compound: Cc1c(C(=O)N2CCC(N[C@H]3CCOC[C@H]3F)CC2)nc(C2CCOCC2)nc1N1CCc2cc(C(F)(F)F)ccc2C1
14

Indicate the recorded Ki value for this compound: CO[C@@H]1COCC[C@@H]1NC1CCN(C(=O)c2nc(C(F)F)nc(N3CCc4ccc(C(F)(F)F)cc4C3)c2C)CC1
2

Indicate the recorded Ki value for this compound: CC(=O)N1CCC(c2nc(Nc3ccc(Cl)c(Cl)c3)c(C)c(C(=O)N3CCC(N[C@H]4CCOC[C@H]4F)CC3)n2)CC1
19

Indicate the recorded Ki value for this compound: CO[C@H]1COCC[C@H]1NC1CCN(C(=O)c2nc(-c3cc(C)on3)nc(N3CCc4ccc(C(F)(F)F)cc4C3)c2C)CC1
5
